Give inhibition at 10 µM for every item shown.
# assay-target: 20S proteasome in Jurkat cell lysates, CT-L activity (Homo sapiens)
# Sequence (P28074 60-263): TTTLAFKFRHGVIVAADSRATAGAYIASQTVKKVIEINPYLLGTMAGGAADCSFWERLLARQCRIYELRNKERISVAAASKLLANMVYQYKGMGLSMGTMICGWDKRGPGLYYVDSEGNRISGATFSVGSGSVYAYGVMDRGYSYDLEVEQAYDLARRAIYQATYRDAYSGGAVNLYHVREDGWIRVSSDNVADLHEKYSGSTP
# Sequence (P20618 29-241 partner): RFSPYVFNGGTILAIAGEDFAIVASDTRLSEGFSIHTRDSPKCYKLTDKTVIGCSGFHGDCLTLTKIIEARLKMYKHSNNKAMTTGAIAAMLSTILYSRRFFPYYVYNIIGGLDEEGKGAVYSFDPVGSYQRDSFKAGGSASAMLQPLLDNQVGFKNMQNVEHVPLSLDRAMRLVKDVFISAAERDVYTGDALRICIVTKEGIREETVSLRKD
# protocol-details: Proteasome inhibition assay in cell lysates, Jurkat, CT-L
# condition-set: read-out: percentage of proteasome inhibition, CT-L, cell lysates Jurkat, at 10 µM
Answer format: numeric, % implied, no suffix.

// inhibition at 10 µM lookup, key: CC(C)c1nc(CN(C)C(=O)N[C@@H](CCN2CCOCC2)C(=O)N[C@H](CC[C@H](Cc2ccccc2)NC(=O)OCc2cncs2)Cc2ccccc2)cs1 [Compound 5, cobicistat, reference compound] 0

Continue with O=C1c2ccccc2C(=O)c2c(Nc3ccc(S(=O)(=O)N(CCO)CCO)cc3)ccc(O)c21 8.23

Same lookup for Cc1ccc(/C(=N/NS(=O)(=O)c2ccc([N+](=O)[O-])cc2)Sc2cc(Cl)c(C)cc2S(N)(=O)=O)cc1 , please. 0

# iterate: Cc1ccc2ccccc2c1CSc1ncnc2c1ncn2C1OC(CO)C(O)C1O (centres unmarked) 0

Can you check C#CCCN1CCN(c2ccc(-n3c(=O)ccc4cnc5ccc(-c6ccc(N)nc6)cc5c43)cc2C(F)(F)F)CC1 next? 10.5

Hello, the source for this data is paper PMC10458307, in case you need it.
